Tested on: cathepsin L1 (Fasciola hepatica)
Test: CTSL1 protease inhibition, fluke enzyme – biochemical, QFRET, fluorogenic peptide substrate, counter-screen for PFM18AAP inhibitor project, primary screen (AID 1906)
Conditions: recombinant F. hepatica cathepsin L1, Z-Leu-Arg-MCA fluorescence; at 5.96 µM
The whole screen tested about 300,000 compounds, of which about 1,500 (0.5%) were called active.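 Rule for the calls: active = inhibition above the mean of all tested compounds plus 3 SD, set per screening campaign (cut at about 17% in these data); inactive = the rest.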 Only a selection was taken, and actives are over-represented in it overall.
I would appreciate it if you answered using one of these outcomes: active, inactive

# example entries with known answers
CCOc1cc(/C=C/c2nc3ccccc3c(=O)[nH]2)cc(Br)c1OC | inactive
COc1ccccc1C(CNC(=O)c1cccc(NS(=O)(=O)c2ccc(Br)cc2)c1)N(C)C (stereo not given) | inactive
C/C=C(\C)C(=O)NCCN1C2=NC[C@H](Cc3ccc(O)cc3)N2C[C@@H]1Cc1ccc(OC)cc1 | inactive
COc1cccc(OCc2nnc3n2N=C(c2ccccc2)C(CC(=O)O)S3)c1 (stereo not given) | inactive
CC(C)CN(CC(C)C)CC(O)CN(c1ccccc1)S(=O)(=O)c1ccccc1[N+](=O)[O-] (stereo not given) | inactive

What was the test verdict on Cc1cc([N+](=O)[O-])c(NC2CCCCC2)c([N+](=O)[O-])c1 ?
inactive

What would you report for COc1cc(OC)nc(N/N=C(\c2ccccc2)c2ccncc2)n1 ?
inactive

And what about the compound CCOC(=O)C1=C(c2ccc(OC)cc2)C(=O)c2ccccc2C1=O ?
active

Ok, now O=c1[nH]c(SCc2cccc(F)c2)nc2ccccc12
inactive

Let us now turn to O=c1[nH]c(/C=C/c2cccc(Br)c2)nc2ccccc12
active
